System: TNFα release in THP-1 cells
Assay: LPS-induced TNFα release in THP-1 cells
Format: cell-based, human
Conditions: Homo sapiens
# reported IC50; entries follow
Measured Metric: IC50

COCC(=O)Nc1cc(Oc2ccc(NC(=O)Nc3cc(C(C)(C)C)nn3-c3ccc(C)cc3)cc2C#N)ccn1; 3.2 nM
COc1ccc(-n2nc(C(C)(C)C)cc2NC(=O)Nc2ccc(Oc3ccnc(NC(=O)NC4CC4)c3)c(Cl)c2Cl)cc1; 2.7 nM
COc1ccc(-n2nc(C(C)(C)C)cc2NC(=O)Nc2ccc(Oc3ccnc(NC(=O)N(C)C)c3)c(Cl)c2Cl)cc1; 0.4 nM
CN(C)CC(=O)Nc1cc(Oc2ccc(NC(=O)Nc3cc(C(C)(C)C)nn3-c3ccc(CO)cc3)c(Cl)c2Cl)ccn1; 0.3 nM
CNC(=O)Nc1nccc(Oc2ccc(NC(=O)Nc3cc(C(C)(C)C)nn3-c3ccc(C)cc3)c(Cl)c2Cl)n1; 2.6 nM
CC(C)(C)c1cc(NC(=O)Nc2ccc(Oc3ccnc(NC(=O)N4CCCC4)c3)c(Cl)c2Cl)n(-c2ccc(O)cc2)n1; 0.4 nM
CNC(=O)Nc1cc(Oc2ccc(NC(=O)Nc3cc(C(C)(C)C)nn3-c3ccc(CO)cc3)c3ncccc23)ccn1; 2.5 nM
COc1cc(-n2nc(C(C)(C)C)cc2NC(=O)Nc2ccc(Oc3ccnc(NC(=O)N4CC[C@H](N(C)C)C4)c3)c(Cl)c2Cl)ccc1CO; 1.2 nM
CN(C)[C@H]1CCN(C(=O)Nc2cc(Oc3ccc(NC(=O)Nc4cc(C(C)(C)C)nn4-c4ccc(O)cc4)c(Cl)c3Cl)ccn2)C1; 0.6 nM
COCC(=O)Nc1cc(Oc2ccc(NC(=O)Nc3cc(C(C)(C)C)nn3-c3ccc(O)cc3)c(Cl)c2Cl)ccn1; 0.3 nM
CN(C)CCCC(=O)Nc1cc(Oc2ccc(NC(=O)Nc3cc(C(C)(C)C)nn3-c3ccc(CO)cc3)c(Cl)c2Cl)ccn1; 0.5 nM
COCCNC(=O)Nc1cc(Oc2ccc(NC(=O)Nc3cc(C(C)(C)C)nn3-c3ccc(OC)cc3)c(Cl)c2Cl)ccn1; 1.2 nM
CNC(=O)Nc1cc(Oc2ccc(NC(=O)Nc3cc(C(C)(C)C)nn3-c3ccc(C(=O)O)cc3)c(Cl)c2Cl)ccn1; 22.7 nM
CC(C)(C)c1cc(NC(=O)Nc2ccc(Oc3ccnc(NC(=O)N4CCCC4)c3)c(Cl)c2Cl)n(-c2ccc(CO)cc2)n1; 0.4 nM
Cc1ccc(-n2nc(C(C)(C)C)cc2NC(=O)Nc2ccc(Oc3ccnc(NC(=O)N(C)C)c3)c(Cl)c2Cl)cc1; 0.5 nM
CNC(=O)Nc1cc(Oc2ccc(NC(=O)Nc3cc(C(C)(C)C)nn3-c3ccc(CO)cc3)c3cccnc23)ccn1; 7.1 nM
COCC(=O)Nc1cc(Oc2ccc(NC(=O)Nc3cc(C(C)(C)C)nn3-c3ccc(C)cc3)c(F)c2)ccn1; 0.9 nM
COc1ccc(-n2nc(C(C)(C)C)cc2NC(=O)Nc2ccc(Oc3ccnc(NC(=O)N4CCCC4(C)C)c3)c(Cl)c2Cl)cc1; 0.8 nM
CNC(=O)Nc1cc(Oc2ccc(NC(=O)Nc3cc(C(C)(C)C)nn3-c3ccc(CO)c(OC)c3)c(Cl)c2Cl)ccn1; 1.8 nM
CSc1ccc(-n2nc(C(C)(C)C)cc2NC(=O)Nc2ccc(Oc3ccnc(NC(=O)N4CCCC4)c3)c(Cl)c2Cl)cc1; 0.4 nM
CN(C)[C@H]1CCN(C(=O)Nc2cc(Oc3ccc(NC(=O)Nc4cc(C(C)(C)C)nn4-c4ccc(CO)cc4)c(Cl)c3Cl)ccn2)C1; 0.7 nM
CNC(=O)Nc1cc(COc2ccc(NC(=O)Nc3cc(C(C)(C)C)nn3-c3ccc(C)cc3)c3cccnc23)ccn1; 1770 nM
CCNC(=O)Nc1cc(Oc2ccc(NC(=O)Nc3cc(C(C)(C)C)nn3-c3ccc(OC)cc3)c(Cl)c2Cl)ccn1; 1.6 nM
COCC(=O)Nc1cc(Oc2cc(Cl)c(NC(=O)Nc3cc(C(C)(C)C)nn3-c3ccc(C)cc3)cc2Cl)ccn1; 9.6 nM
COc1ccc(-n2nc(C(C)(C)C)cc2NC(=O)Nc2ccc(Oc3ccnc(NC(=O)N4CC[C@H](N(C)C)C4)c3)c(Cl)c2Cl)cc1; 0.3 nM
COCC(=O)Nc1cc(COc2ccc(NC(=O)Nc3cc(C(C)(C)C)nn3-c3ccc(C)cc3)c(Cl)c2Cl)ccn1; 6.1 nM
COCC(=O)Nc1cc(Oc2ccc(NC(=O)Nc3cc(C(C)(C)C)nn3-c3ccc(C)cc3)c(Cl)c2C(F)(F)F)ccn1; 1.8 nM
